Values compiled from patent US20240084003A1.

- System under test: T1, human CD22, endogenous on Raji cells (human, UniProt P20273 20-847)
- T1 construct: whole, on cells; Endogenous protein of the Raji cell line
- T1 sequence (looked up): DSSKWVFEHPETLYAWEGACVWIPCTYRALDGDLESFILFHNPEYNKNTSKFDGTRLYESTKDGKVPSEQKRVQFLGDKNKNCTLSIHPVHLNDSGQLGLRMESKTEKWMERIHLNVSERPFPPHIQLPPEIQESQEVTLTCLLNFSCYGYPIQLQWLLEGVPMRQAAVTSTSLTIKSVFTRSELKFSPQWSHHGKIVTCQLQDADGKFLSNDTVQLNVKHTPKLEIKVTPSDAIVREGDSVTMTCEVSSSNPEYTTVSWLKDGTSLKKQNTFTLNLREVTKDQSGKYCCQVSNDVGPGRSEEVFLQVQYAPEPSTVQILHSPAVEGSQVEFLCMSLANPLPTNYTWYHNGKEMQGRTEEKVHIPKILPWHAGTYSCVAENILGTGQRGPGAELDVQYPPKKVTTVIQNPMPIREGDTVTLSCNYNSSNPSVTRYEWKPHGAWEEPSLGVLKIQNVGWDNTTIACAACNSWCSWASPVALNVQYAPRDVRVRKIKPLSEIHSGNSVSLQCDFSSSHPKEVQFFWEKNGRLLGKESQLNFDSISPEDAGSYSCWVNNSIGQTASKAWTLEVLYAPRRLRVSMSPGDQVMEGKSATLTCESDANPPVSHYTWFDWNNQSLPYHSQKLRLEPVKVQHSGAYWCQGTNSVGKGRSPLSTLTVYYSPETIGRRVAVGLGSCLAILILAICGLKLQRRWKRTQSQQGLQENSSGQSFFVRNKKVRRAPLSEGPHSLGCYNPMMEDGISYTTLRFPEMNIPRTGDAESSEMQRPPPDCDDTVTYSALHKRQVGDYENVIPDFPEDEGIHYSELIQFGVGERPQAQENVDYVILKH
- Procedure summary: FACS, Raji cells
Recorded metric: pEC50
# pEC50 = -log10(concentration in molar units)

{"columns": ["Binder", "pEC50"],
 "data": [
  ["F2.205.9 human-murine chimeric antibody (antibody, human IgG1, lambda, V domains shown, Chimeric, human IgG1 / lambda; VL tied by name) VH: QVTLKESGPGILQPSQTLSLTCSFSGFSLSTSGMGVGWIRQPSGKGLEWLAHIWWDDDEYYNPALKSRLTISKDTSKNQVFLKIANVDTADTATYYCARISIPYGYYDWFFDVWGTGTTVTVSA VL: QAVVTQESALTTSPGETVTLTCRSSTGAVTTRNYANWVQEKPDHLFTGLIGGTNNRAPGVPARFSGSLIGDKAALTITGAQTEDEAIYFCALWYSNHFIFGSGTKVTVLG", 9.42]
]}

Shift focus to the following entry.
Problem: Quick one: pEC50 of F2.99.1 human-murine chimeric antibody (antibody, human IgG1, lambda, V domains shown, Chimeric, human IgG1 / lambda; VL tied by name) VH: QVTLKESGPGILQPSQTLSLTCSFSGFSLSTFPMGVGWIRQPSGKGLEWLAHIWWDDDEYYNPVLKSRLTISKDTSKKQVYLRIANVDTVDTATYYCTRANWDRWYFDVWGTGTTVTVSS VL: QLVLTQSSSASFSLGASAKLTCTLSRQHSAYTIEWYQQQPLKPPKYVMEVKKDGSHSTGDGIPDRFSGSSSGADRYLSISNIQPEDEAIYICGVGDTIKEHFVFGGGTKVTVLG ?
Solution: 9.23
